molecular target: T1, Rhesus macaque CD4-HIS (Acro Biosystems, Cat. CD4-C52H7) (rhesus macaque, UniProt P16003 26-390); experiment: BLI Octet, mAb on anti-mouse Fc sensor, rhesus CD4-HIS 25-100 nM, 1:1 global fit;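 further: purified antibodies captured at 10 µg/mL, rhesus CD4 analyte run as a three-concentration serial dilution, irrelevant antibody as reference control, one kinetic constant set per antibody from global fitting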
T1 construct: Bought reagent; also called Rhesus CD4; rhesus CD4-HIS; not shown: His tag
T1 sequence (P16003 26-390 limits assumed): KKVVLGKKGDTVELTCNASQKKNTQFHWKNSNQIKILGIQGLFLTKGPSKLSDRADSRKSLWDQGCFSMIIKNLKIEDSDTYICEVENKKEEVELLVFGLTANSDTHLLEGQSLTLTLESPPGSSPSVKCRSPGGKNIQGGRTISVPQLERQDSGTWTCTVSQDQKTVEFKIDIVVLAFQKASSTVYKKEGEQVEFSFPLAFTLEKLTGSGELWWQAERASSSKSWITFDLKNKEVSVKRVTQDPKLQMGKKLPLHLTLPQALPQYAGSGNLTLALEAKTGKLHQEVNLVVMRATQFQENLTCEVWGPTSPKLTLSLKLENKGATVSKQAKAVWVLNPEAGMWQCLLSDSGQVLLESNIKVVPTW
Value type: pKd
# reply with the number alone; pKd is -log10 of concentration in mol/L

A selection of reference data follows.
>>> measured_number("75110_03L12A (antibody, V domains shown, Tested as antibody purified from AlivaMab Mouse hybridoma supernatant (captured by anti-mouse IgG Fc)) VH: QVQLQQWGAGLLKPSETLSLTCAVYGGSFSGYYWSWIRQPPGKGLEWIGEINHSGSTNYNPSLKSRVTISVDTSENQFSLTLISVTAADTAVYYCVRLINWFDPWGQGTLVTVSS VL: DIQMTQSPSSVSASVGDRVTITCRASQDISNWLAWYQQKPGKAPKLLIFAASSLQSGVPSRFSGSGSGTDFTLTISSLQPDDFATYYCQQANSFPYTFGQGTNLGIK")
7.14
>>> measured_number("75110_05E13A (antibody, V domains shown, Tested as antibody purified from AlivaMab Mouse hybridoma supernatant (captured by anti-mouse IgG Fc)) VH: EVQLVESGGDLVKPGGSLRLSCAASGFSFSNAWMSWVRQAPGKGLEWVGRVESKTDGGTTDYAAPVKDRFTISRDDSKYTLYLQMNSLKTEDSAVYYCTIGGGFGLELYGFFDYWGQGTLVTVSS VL: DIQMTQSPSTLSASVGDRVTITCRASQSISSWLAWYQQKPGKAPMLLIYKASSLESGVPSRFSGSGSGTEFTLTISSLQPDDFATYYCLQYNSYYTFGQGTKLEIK")
8.17

Q) So what's the measured pKd for this one? 75110_04B08A (antibody, V domains shown, Tested as antibody purified from AlivaMab Mouse hybridoma supernatant (captured by anti-mouse IgG Fc)) VH: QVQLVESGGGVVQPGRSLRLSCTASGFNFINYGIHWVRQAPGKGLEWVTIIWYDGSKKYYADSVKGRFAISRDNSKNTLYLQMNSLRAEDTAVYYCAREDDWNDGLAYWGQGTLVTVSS VL: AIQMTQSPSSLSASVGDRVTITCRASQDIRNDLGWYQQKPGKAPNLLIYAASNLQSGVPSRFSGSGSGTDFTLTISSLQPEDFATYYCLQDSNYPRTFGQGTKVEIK
A) 7.74
